These molecules were tested on Enzyme (kinases of Table 30) (Homo sapiens, UniProt P78368); pIC50 is the recorded read-out.
Sequence (P78368 whole entry): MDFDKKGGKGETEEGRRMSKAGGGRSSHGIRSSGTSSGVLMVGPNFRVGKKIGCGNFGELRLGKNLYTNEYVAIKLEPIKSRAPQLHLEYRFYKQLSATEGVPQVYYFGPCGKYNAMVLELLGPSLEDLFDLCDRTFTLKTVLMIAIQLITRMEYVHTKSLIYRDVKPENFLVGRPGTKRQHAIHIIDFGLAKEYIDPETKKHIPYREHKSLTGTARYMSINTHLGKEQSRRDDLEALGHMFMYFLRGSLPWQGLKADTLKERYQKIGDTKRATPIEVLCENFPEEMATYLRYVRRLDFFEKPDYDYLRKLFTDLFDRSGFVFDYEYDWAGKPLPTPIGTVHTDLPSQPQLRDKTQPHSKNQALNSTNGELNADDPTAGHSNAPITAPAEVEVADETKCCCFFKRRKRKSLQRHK
pIC50: −log10 of the molar value.
endpoint name: pIC50

COc1cccc2ccc(CNCC3CCN(c4nccc(/C=C5\SC(=O)NC5=O)n4)CC3)nc12
6.79
Nc1cccc2c1CCN(c1nccc(/C=C3\SC(=O)NC3=O)n1)C2
6.17
O=C1NC(=O)/C(=C/c2ccnc(N3CCC(c4nc(-c5ccncc5)no4)CC3)n2)S1
7.07

====

molecular target: Enzyme (kinases of Table 30) (Homo sapiens); assay: IC50 of Compound (nM) (ATP present at Km of enzyme), Table 30; type: biochemical; conditions: Pim-1(h), ATP present at Km of enzyme; read-out: IC50 of Compound, Pim-1(h)
Reported IC50 values are given for each entry in this list.
endpoint name: IC50 (nM)

O=C1NC(=O)/C(=C/c2ccnc(N[C@H]3CCCNC3)n2)S1
78
O=C1NC(=O)/C(=C/c2ccnc(N3CCC(CNCc4cccc(-c5ccc(F)cc5)n4)CC3)n2)S1
99
CC1CCCN(c2nccc(/C=C3\SC(=O)NC3=O)n2)C1 (centres unmarked)
164
O=C1NC(=O)/C(=C/c2ccnc(N3CCC(CNCc4ccccn4)CC3)n2)S1
157
Nc1ccc2c(c1)CN(c1nccc(/C=C3\SC(=O)NC3=O)n1)CC2
97
